Here's a roundup of pKd values tested on Tyrosine-protein kinase JAK2 (Homo sapiens, UniProt O60674), taken from various published works.
pKd: −log10 of the molar value.

1) Cc1cc(CNc2[nH]nc(Nc3ccc(C(C)(C)C)cc3)c2C(N)=O)cc(C)c1O | < 6.00
2) Cc1cc(Nc2nc(C(O)c3ccc(F)c(O)c3)nc3ccccc23)n[nH]1 (racemic) | ≥ 9.00

Provide measured pKd on Tyrosine-protein kinase JAK2 (Homo sapiens, UniProt O60674) for Cc1cc(Nc2nc(C(=O)c3ccc(F)cc3)nc3cc(O)ccc23)n[nH]1 please.
≥ 9.00

Provide measured pKd on Tyrosine-protein kinase JAK2 (Homo sapiens, UniProt O60674) for CN1Cc2ccccc2OCCNC(=O)c2cnn3ccc1nc23 please.
7.62

Provide measured pKd on Tyrosine-protein kinase JAK2 (Homo sapiens, UniProt O60674) for Cc1cc(Nc2nc(C(NC3CC3)c3ccc(F)cc3)nc3ccccc23)n[nH]1 (centres unmarked) please.
≥ 9.00
